assay: Activators via SNCA 5'UTR binding, MLPCN (AID 1814); conditions: alpha-synuclein 5'UTR reporter, activators screen; tested at 7.5 µM
Out of some 300,000 compounds screened, about 22,000 (7.3%) were called active. Another 2% or so got no clear call; they are omitted. Rule as the data show it: active = activity score below about -60%; inconclusive = mostly about -28% to -61%; inactive = positive scores. Shown is part of a subset that was picked to be rich in actives.
Response enum: class 1 for active, class 0 for inactive

Some solved entries appear below for comparison.
Status in this test for `COc1ccc(-c2cc3n(n2)CCc2nc4ccccc4n2-3)cc1` ?
class 1

Returns: the outcome recorded for `Cc1cccc(NC(=S)Nc2ccc(Cl)c(Cl)c2)c1` in this assay.
class 1

New cases:
State the result this test recorded for `COc1ccc(Cc2n[nH]c(=S)n2NC(=O)Nc2ccc(C)cc2)cc1` .
class 1

Which outcome did this test record for the compound `O=c1oc2cc(O)ccc2cc1-c1ccc(F)cc1` ?
class 1

Just curious, what result did `Cc1cccc(NC(=S)Nc2ccc(Br)cc2)c1` get here?
class 1

Hello, I am checking results. What call was entered for `Fc1ccc(/C=N/Nc2nc(-c3cccnc3)nc3ccccc23)cc1` ?
class 1

Answer briefly: the call reported for `Cc1cccc(NC(=O)c2nc(S(=O)(=O)Cc3ccccc3)ncc2Cl)c1` in this assay.
class 0

// param item: `N#C/C=C\Oc1ccc(Cl)cc1N` ; yields the recorded call
class 1

What did this assay record as the result for `CN(c1cccc(NC(=O)Nc2ccc(Cl)cc2)c1)S(C)(=O)=O` ?
class 1

In this assay, the call recorded for `CC(=O)Nc1ccc(-c2nc3ccccc3o2)cc1` was what?
class 1

Hello, I am checking results. What call was entered for `CS(=O)(=O)N1CCc2cc(C(=O)Nc3ccccc3Br)ccc21` ?
class 1

Could you please tell me the result logged for `COc1ccc(-n2nc(C(=O)NCC(=O)N3CCN(c4ccccc4OC)CC3)c3ccccc3c2=O)c(OC)c1` in this assay?
class 1

Per the assay record, what outcome was assigned to `COc1ccc2nc(N3CCN(C(=O)c4ccc([N+](=O)[O-])o4)CC3)sc2c1` ?
class 1

Status in this test for `Cc1cc2nc(-c3ccc(NC(=O)c4cccnc4)cc3)oc2cc1C` ?
class 1

Which outcome did this test record for the compound `c1ccc(-c2cc(-c3ccccc3)[nH]n2)cc1` ?
class 1

Status in this test for `CC(C)(C)c1ccc(C(=O)CSc2ncn[nH]2)cc1` ?
class 1

// return assay outcome for `Clc1cccc(-c2nc3nc4ccccc4nc3n2Cc2ccco2)c1`
class 1

Name the outcome recorded for `CSc1nccc(NC(=O)c2ccc(C(C)(C)C)cc2)n1` in the assay.
class 1

---

assay: Activators via SNCA 5'UTR binding, MLPCN (AID 1814); details: alpha-synuclein 5'UTR reporter, activators screen; hits give low values; tested at 7.5 µM
Screen size: about 300,000 compounds; about 22,000 (7.3%) were called active. Roughly 2% stayed inconclusive and do not appear here. Many of the other results were omitted from the sample, so actives are more common in it than they were.
Measured parameter: activity score

Worked cases, answers included:
Name the reported activity score value associated with the compound `Cc1cccc(N2Cc3ccccc3C2=NC(=O)c2ccc(Cl)nc2)c1`
-115% (active)

# input compound: `O=C(CN1CCCCCC1)Nc1c(Cl)cc(Cl)cc1Cl` ; wanted: its activity score
-86.3% (active)

Kindly consider the entry below.
Reported activity score for `Cc1ccc(CN2C(=O)N/C(=C/c3cc(C)n(-c4ccccn4)c3C)C2=O)cc1` : what is it?
-88.6% (active)

All figures here come from PubChem BioAssay AID1814.
